- Test system: HCC827 cells (EGFR Exon19 del, non-small cell lung cancer cells)
- protocol.details: Cell viability assay (WST/CCK8), HCC827 cells
- Format: cell-based
- protocol.conditions: Homo sapiens, HCC827, 72 h, Table 6, canertinib-based compounds; HCC827 (Exon19 Del); 72 hours; WST; read-out: IC50 (half inhibitory concentration)

>  <compound>
C=CC(=O)Nc1cc2c(Nc3ccc(F)c(Cl)c3)ncnc2cc1OCCCN1CCN(C(=O)CCCCSc2cccc3c2CN(C2CCC(=O)NC2=O)C3=O)CC1 (stereo not drawn)

>  <study.system>
HCC827 cells (EGFR Exon19 del, non-small cell lung cancer cells)

>  <IC50 / nM>
4.1

$$$$
>  <compound>
C=CC(=O)Nc1cc2c(Nc3ccc(F)c(Cl)c3)ncnc2cc1OCCCN1CCN(C(=O)CCCCCNc2cccc3c2C(=O)N(C2CCC(=O)NC2=O)C3=O)CC1 (stereo not drawn)

>  <study.system>
HCC827 cells (EGFR Exon19 del, non-small cell lung cancer cells)

>  <IC50 / nM>
0.3

$$$$
>  <compound>
C=CC(=O)Nc1cc2c(Nc3ccc(F)c(Cl)c3)ncnc2cc1OCCCN1CCN(C(=O)CSc2cccc3c2CN(C2CCC(=O)NC2=O)C3=O)CC1 (stereo not drawn)

>  <study.system>
HCC827 cells (EGFR Exon19 del, non-small cell lung cancer cells)

>  <IC50 / nM>
9.3

$$$$
